The measured values listed here are drawn from the Human Domainome abundance scans (Beltran et al. 2025).

B1: Far upstream element-binding protein 3, residues 75 to 150; numbered along this chain, Q96I24 (parent)
chain: RTVITEEFKVPDKMVGFIIGRGGEQISRIQAESGCKIQIASESSGIPERPCVLTGTPESIEQAKRLLGQIVDRCRN

# Variants of: B1
# Assay Remarks: abundance fitness (aPCA) (normalised: wild type 0, dead -1); higher = more abundant; growth selection in yeast, the domain comes from the species named
# Condition Label: Homo sapiens
Observed Property: abundance fitness

construct_sequence="RTVITEEFKVPDKMVGFIIGRGGEQISRIQAESGCKIQIASESSGIPWRPCVLTGTPESIEQAKRLLGQIVDRCRN [E48W]" obs_value=-0.055
construct_sequence="RTVITEEFKVPDKMVGFIIGRGGEQISRIQAKSGCKIQIASESSGIPERPCVLTGTPESIEQAKRLLGQIVDRCRN [E32K]" obs_value=-0.054
construct_sequence="RTVITEEFKVPDKMVGFIIGRGGEQISRIQAESGCKIQIASESSGIPERPCVLTGTPESIEQAKRYLGQIVDRCRN [L66Y]" obs_value=-0.078
